# Read-out: Transforming Growth Factor (TGFB1), TGFB1 (gene 7040)
# assay comment: LTEA_HepaRG_TGFB1: Life Technologies and Expression Analysis (LTEA) Assay for Transforming Growth Factor (TGFB1) Transporter using HepaRG (AID 2283533)
# condition parameters: mRNA level, 48 h; actives raise or lower the signal
Calls of active or inactive are those of the source. Rule for the calls: active = hit-call score of the fitted dose curve at least 0.9, where 1 is the maximum; inactive = score below 0.9.
reported property: outcome

Worked cases, outcome given:
* Clc1cc(Cl)c(Cl)cc1Cl | inactive
* CC1(C)NC(=O)NC1=O | inactive
* O=c1[nH]cc(F)c(=O)[nH]1 | inactive
* CCCCCCCC=O | inactive
* Cc1ccc(Cl)cc1 | inactive
* Cc1ccc(N(C)C)cc1 | inactive
* c1cc(-c2ccncc2)ccn1 | inactive
* CC(=O)C(C)=CC1C(C)=CCCC1(C)C (stereo not given) | inactive

Query: Item COCCOC[C@H](CC1(C(=O)NC2CCC(C(=O)O)CC2)CCCC1)C(=O)Oc1ccc2c(c1)CCC2 (stereo not given in full) : provide outcome
Reply: inactive

Query: Item "CC(=O)OCCOCCOCCOC(C)=O" : provide outcome
Reply: inactive

Query: Item "CCCc1cc(=O)[nH]c(=S)[nH]1" : provide outcome
Reply: inactive

====

# target under test: rat Peripheral-type Benzodiazepine Receptor (PBR), Tspo (gene 24230)
# assay comment: NVS_MP_rPBR: NovaScreen (NVS) Membrane Protein Assay for rat Peripheral-type Benzodiazepine Receptor (PBR) (AID 2283335)
# Description: NVS_MP_rPBR is a biochemical, single-readout assay that uses extracted gene-proteins from Rat kidney membranes in a tissue-based cell-free assay. Measurements were taken 1 hour after chemical dosing in a 48-well plate.NVS_MP_rPBR is one of one assay component(s) measured or calculated from the NVS_MP_rPBR assay. […] This assay endpoint, NVS_MP_rPBR, was analyzed in the positive analysis fitting direction relative to DMSO as the negative control and baseline of activity. […]
Results filed as inconclusive are left out. Activity calls are given as the source filed them. The calls were made as follows: active = hit-call score of the fitted dose curve at least 0.9, where 1 is the maximum; inconclusive = response in the unintended direction; inactive = score below 0.9.
reported property: AC50

- Cc1ccc(C(C)C)c(O)c1: inactive
- Cc1oc(-c2ccccc2)nc1CCOc1cccc2c1ccn2CCC(=O)O: 46.5 µM (active)
- CC(C)c1ccc(C(=O)N=C(N)N)cc1S(C)(=O)=O: inactive
- NS(=O)(=O)c1cc2c(cc1Cl)NCNS2(=O)=O: inactive

Proceeding to the next compound to report its AC50.
Query: Item "NC(=O)Cn1c(=O)cc(CCN2CCN(c3nccc4sccc34)CC2)c2ccc(F)cc21" : provide AC50
Reply: 1.6 µM (active)

====

# Read-out: Human Leukocyte Antigen - DR isotype (HLADR), HLA-DRA (gene 3122)
# assay comment: BSK_BE3C_HLADR: BioMAP Diversity Plus: BE3C Assay for Human Leukocyte Antigen - DR isotype (HLADR) Biomarker Activity (AID 2283032)
# condition parameters: primary human bronchial epithelial cells; actives raise or lower the signal
The source made the active and inactive calls. How the source made its calls: active means hit-call score of the fitted dose curve at least 0.9, where 1 is the maximum; inactive means score below 0.9.
Mark one answer only. Choices: active, inactive

# count of solved cases: 5
• CCCCN(CCCC)CCCC = inactive
• NS(=O)(=O)c1cc2c(cc1Cl)NCNS2(=O)=O = inactive
• Cc1cc(=O)[nH]c(=S)[nH]1 = inactive
• O=[N+]([O-])C(CO)(CO)CO = inactive
• Cc1ccc(C(C)C)c(O)c1 = inactive

Query: Could you please tell me the result logged for "O=C(O)CCCCC(=O)O" in this assay?
Reply: inactive

Query: Could you please tell me the result logged for "CCCCCCCCCCCC(=O)OC" in this assay?
Reply: inactive

Query: Could you please tell me the result logged for "C=CCOC(=O)c1ccccc1C(=O)OCC=C" in this assay?
Reply: inactive

Query: Could you please tell me the result logged for "CCCCCCCCCCCCCCCCCC(=O)O" in this assay?
Reply: inactive
